Taken from ChEMBL document CHEMBL1146060.

For each record, write down the corresponding pKi.
FYI, pKi means -log10 of a concentration in mol per litre.

Field: pKi (Lethal factor (Bacillus anthracis, UniProt P15917)). Entry: N=C(N)Nc1ccc([C@H]2C[C@@H](O)[C@H](NC(=N)N)C[C@@H]2NC(=N)N)cc1
4.83

Field: pKi (Lethal factor (Bacillus anthracis, UniProt P15917)). Entry: N=C(N)Nc1cc(NC(=N)N)c2ccccc2c1[C@H]1C[C@@H](O)[C@H](NC(=N)N)C[C@@H]1NC(=N)N
4.97

Field: pKi (Lethal factor (Bacillus anthracis, UniProt P15917)). Entry: N=C(N)Nc1ccc([C@H]2C[C@@H](O)[C@H](NC(=N)N)C[C@@H]2NC(=N)N)c2ccccc12
4.50

Field: pKi (Lethal factor (Bacillus anthracis, UniProt P15917)). Entry: N=C(N)Nc1ccccc1NC(=O)O[C@H]1C[C@@H](O)[C@H](NC(=N)N)C[C@@H]1NC(=N)N
4.61

Field: pKi (Lethal factor (Bacillus anthracis, UniProt P15917)). Entry: N=C(N)Nc1cccnc1[C@H]1C[C@@H](O)[C@H](NC(=N)N)C[C@@H]1NC(=N)N
5.39

Field: pKi (Lethal factor (Bacillus anthracis, UniProt P15917)). Entry: Cc1cc(NC(=O)O[C@@H]2C[C@H](Oc3ccc(NC(=N)N)cc3N=C(N)N)[C@@H](N=C(N)N)C[C@H]2N=C(N)N)ccc1F
6.30

Field: pKi (Lethal factor (Bacillus anthracis, UniProt P15917)). Entry: N=C(N)Nc1ccccc1[C@H]1C[C@@H](O)[C@H](NC(=N)N)C[C@@H]1NC(=N)N
4.51

Field: pKi (Lethal factor (Bacillus anthracis, UniProt P15917)). Entry: N=C(N)Nc1ccc([C@H]2C[C@@H](O)[C@H](NC(=N)N)C[C@@H]2NC(=N)N)c(NC(=N)N)c1
6.22

* * *

Target: Lethal factor (Bacillus anthracis, UniProt P15917)
Sequence (P15917 whole entry): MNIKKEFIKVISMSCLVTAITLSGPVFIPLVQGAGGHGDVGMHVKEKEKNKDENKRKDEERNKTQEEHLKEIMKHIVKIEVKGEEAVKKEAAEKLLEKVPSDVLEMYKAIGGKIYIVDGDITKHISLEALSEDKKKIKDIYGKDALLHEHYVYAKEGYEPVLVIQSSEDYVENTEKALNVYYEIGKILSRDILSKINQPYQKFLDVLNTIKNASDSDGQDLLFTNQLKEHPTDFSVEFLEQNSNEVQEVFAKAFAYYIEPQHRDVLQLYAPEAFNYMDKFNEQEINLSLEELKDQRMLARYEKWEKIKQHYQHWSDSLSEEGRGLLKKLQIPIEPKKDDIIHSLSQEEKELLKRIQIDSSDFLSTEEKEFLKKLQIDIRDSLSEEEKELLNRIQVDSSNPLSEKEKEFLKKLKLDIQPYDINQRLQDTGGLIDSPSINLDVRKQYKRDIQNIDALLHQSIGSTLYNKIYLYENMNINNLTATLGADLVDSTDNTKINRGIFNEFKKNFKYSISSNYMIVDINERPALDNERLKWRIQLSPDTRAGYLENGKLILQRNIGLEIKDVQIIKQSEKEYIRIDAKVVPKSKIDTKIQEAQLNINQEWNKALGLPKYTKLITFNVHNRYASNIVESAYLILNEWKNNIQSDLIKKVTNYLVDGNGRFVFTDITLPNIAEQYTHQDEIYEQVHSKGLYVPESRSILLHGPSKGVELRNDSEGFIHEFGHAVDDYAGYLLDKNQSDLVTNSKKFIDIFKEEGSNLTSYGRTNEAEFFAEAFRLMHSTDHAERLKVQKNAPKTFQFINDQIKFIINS
Assay: Inhibition of Bacillus anthracis LF by FRET assay
Conditions: read-out: Ki app
For each record, write down the corresponding Ki.
State just the number; it will be interpreted in µM.

Field: Ki (Lethal factor (Bacillus anthracis, UniProt P15917)). Entry: N=C(N)Nc1ccc(O[C@H]2C[C@@H](Oc3ccc(NC(=N)N)cc3NC(=N)N)[C@H](NC(=N)N)C[C@@H]2NC(=N)N)c(NC(=N)N)c1
0.065

Field: Ki (Lethal factor (Bacillus anthracis, UniProt P15917)). Entry: N=C(N)Nc1ccc([C@H]2C[C@@H](O)[C@H](NC(=N)N)C[C@@H]2NC(=N)N)nc1
6.6

Field: Ki (Lethal factor (Bacillus anthracis, UniProt P15917)). Entry: N=C(N)N[C@H]1C[C@@H](NC(=N)N)[C@H](O)C[C@@H]1c1ccc2[nH]c(N)nc2c1
154
